test.target: Mitogen-activated protein kinase kinase kinase 4 (Homo sapiens, UniProt Q9Y6R4); note: in the data inactive means no Kd found up to 30 µM
Sequence (Q9Y6R4 whole entry): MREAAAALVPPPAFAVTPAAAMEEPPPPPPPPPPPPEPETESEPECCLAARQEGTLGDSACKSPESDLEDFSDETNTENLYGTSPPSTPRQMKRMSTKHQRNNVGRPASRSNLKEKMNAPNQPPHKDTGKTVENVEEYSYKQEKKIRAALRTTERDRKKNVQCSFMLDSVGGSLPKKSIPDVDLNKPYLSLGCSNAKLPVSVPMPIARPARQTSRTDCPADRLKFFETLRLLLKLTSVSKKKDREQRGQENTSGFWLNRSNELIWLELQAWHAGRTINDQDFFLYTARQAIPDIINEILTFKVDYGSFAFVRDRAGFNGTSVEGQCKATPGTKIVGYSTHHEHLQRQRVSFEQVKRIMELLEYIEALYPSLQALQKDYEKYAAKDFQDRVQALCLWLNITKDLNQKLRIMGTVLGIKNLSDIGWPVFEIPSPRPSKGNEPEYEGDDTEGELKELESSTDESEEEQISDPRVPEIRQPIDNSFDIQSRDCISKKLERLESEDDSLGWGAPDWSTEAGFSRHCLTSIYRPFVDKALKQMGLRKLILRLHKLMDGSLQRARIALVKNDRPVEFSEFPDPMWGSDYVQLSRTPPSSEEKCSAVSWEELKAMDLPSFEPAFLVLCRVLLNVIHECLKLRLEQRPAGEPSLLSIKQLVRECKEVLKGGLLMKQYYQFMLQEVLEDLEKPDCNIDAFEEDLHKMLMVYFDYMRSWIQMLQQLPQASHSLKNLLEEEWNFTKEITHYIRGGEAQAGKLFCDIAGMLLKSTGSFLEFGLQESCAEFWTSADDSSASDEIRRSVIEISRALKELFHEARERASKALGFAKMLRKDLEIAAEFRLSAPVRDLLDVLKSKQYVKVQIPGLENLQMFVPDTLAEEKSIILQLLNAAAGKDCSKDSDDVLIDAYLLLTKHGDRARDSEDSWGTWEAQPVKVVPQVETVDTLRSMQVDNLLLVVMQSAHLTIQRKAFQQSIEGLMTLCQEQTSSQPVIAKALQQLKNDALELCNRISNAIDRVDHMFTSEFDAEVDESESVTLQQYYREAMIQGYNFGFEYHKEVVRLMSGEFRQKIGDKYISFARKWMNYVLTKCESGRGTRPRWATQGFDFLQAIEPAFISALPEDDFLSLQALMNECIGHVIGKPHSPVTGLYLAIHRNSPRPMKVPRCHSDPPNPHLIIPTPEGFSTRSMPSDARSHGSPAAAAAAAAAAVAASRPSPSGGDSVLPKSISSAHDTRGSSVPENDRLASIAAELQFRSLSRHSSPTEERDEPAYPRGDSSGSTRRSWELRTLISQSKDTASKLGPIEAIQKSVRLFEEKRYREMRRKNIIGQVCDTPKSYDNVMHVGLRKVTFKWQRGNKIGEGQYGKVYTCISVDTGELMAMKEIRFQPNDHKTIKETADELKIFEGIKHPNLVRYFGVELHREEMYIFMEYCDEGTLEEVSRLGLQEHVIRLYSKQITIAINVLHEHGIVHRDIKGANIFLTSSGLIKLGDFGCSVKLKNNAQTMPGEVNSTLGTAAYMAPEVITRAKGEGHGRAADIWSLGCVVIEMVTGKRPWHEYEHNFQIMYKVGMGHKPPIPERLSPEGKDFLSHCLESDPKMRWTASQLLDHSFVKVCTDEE
Calls of active or inactive are those of the source.
Outcomes: Y (active), N (inactive)

| molecule | test.target | label.value |
| --- | --- | --- |
| C=CC(=O)N1CCC(Oc2cc3c(Nc4ccc(Cl)c(Cl)c4F)ncnc3cc2OC)CC1 [POZIOTINIB] | Mitogen-activated protein kinase kinase kinase 4 (Homo sapiens, UniProt Q9Y6R4) | N |
| Cc1ccc(NC(=O)c2ccc(CN3CC[C@H](N(C)C)C3)c(C(F)(F)F)c2)cc1Nc1nccc(-c2cncnc2)n1 [BAFETINIB] | Mitogen-activated protein kinase kinase kinase 4 (Homo sapiens, UniProt Q9Y6R4) | N |
| C1=C/COCc2cc(ccc2OCCN2CCCC2)Nc2nccc(n2)-c2cccc(c2)COC/1 [PACRITINIB] | Mitogen-activated protein kinase kinase kinase 4 (Homo sapiens, UniProt Q9Y6R4) | N |
| O=c1sn(-c2cccc3ccccc23)c(=O)n1Cc1ccccc1 [TIDEGLUSIB] | Mitogen-activated protein kinase kinase kinase 4 (Homo sapiens, UniProt Q9Y6R4) | N |
| Cc1ccc(S(=O)(=O)Nc2nc3ccccc3nc2Nc2ccc3nsnc3c2)cc1 | Mitogen-activated protein kinase kinase kinase 4 (Homo sapiens, UniProt Q9Y6R4) | N |
| Cc1c(F)cc(C(=O)NC2CC2)cc1-c1ccc(C(=O)NCC(C)(C)C)cn1 [LOSMAPIMOD] | Mitogen-activated protein kinase kinase kinase 4 (Homo sapiens, UniProt Q9Y6R4) | N |
| CCc1cnn2c(NCc3ccc[n+]([O-])c3)cc(N3CCCC[C@H]3CCO)nc12 [DINACICLIB] | Mitogen-activated protein kinase kinase kinase 4 (Homo sapiens, UniProt Q9Y6R4) | N |
| COCCNCc1ccc(-c2cc3nccc(Oc4ccc(NC(=S)NC(=O)Cc5ccc(F)cc5)cc4F)c3s2)nc1 [GLESATINIB] | Mitogen-activated protein kinase kinase kinase 4 (Homo sapiens, UniProt Q9Y6R4) | N |
| Cn1cc(-c2ccc(F)c(C(F)(F)F)c2)nc1C1CCN(c2ncnc3[nH]ncc23)CC1 [LY-2584702] | Mitogen-activated protein kinase kinase kinase 4 (Homo sapiens, UniProt Q9Y6R4) | N |
| CNS(=O)(=O)Nc1nccc(Cc2c(C)c3ccc(Oc4ncccn4)cc3oc2=O)c1F [AVUTOMETINIB] | Mitogen-activated protein kinase kinase kinase 4 (Homo sapiens, UniProt Q9Y6R4) | N |
| CCS(=O)(=O)N1CC(CC#N)(n2cc(-c3ncnc4[nH]ccc34)cn2)C1 [BARICITINIB] | Mitogen-activated protein kinase kinase kinase 4 (Homo sapiens, UniProt Q9Y6R4) | N |
| O=C1NC(=O)/C(=C/c2ccc3nccc(-c4ccncc4)c3c2)S1 [GSK-1059615] | Mitogen-activated protein kinase kinase kinase 4 (Homo sapiens, UniProt Q9Y6R4) | N |
| COc1cc2nccc(Oc3ccc(NC(=O)NC4CC4)c(Cl)c3)c2cc1C(N)=O [LENVATINIB] | Mitogen-activated protein kinase kinase kinase 4 (Homo sapiens, UniProt Q9Y6R4) | N |
| CNC(=O)c1cc(Oc2ccc(NC(=O)Nc3ccc(Cl)c(C(F)(F)F)c3)c(F)c2)ccn1 [REGORAFENIB] | Mitogen-activated protein kinase kinase kinase 4 (Homo sapiens, UniProt Q9Y6R4) | N |
| COc1cc2nccc(Oc3ccc(NC(=O)Nc4cc(C)on4)c(Cl)c3)c2cc1OC [TIVOZANIB] | Mitogen-activated protein kinase kinase kinase 4 (Homo sapiens, UniProt Q9Y6R4) | N |
| CCN1CCN(Cc2ccc(-c3cc4c(N[C@H](C)c5ccccc5)ncnc4[nH]3)cc2)CC1 [AEE-788] | Mitogen-activated protein kinase kinase kinase 4 (Homo sapiens, UniProt Q9Y6R4) | Y |
| CN1CCC(COc2cnc(-c3cccc(Cn4nc(-c5cccc(C#N)c5)ccc4=O)c3)nc2)CC1 [TEPOTINIB] | Mitogen-activated protein kinase kinase kinase 4 (Homo sapiens, UniProt Q9Y6R4) | N |
